Molecular target: T1, human IgE (human, UniProt P01854 1-428)
T1 construct: written under the same molecule; also called IgE (Abcam ab65866); soluble IgE
T1 sequence (P01854 other isoform, or with tags, fused parts or gaps limits assumed, form in doubt): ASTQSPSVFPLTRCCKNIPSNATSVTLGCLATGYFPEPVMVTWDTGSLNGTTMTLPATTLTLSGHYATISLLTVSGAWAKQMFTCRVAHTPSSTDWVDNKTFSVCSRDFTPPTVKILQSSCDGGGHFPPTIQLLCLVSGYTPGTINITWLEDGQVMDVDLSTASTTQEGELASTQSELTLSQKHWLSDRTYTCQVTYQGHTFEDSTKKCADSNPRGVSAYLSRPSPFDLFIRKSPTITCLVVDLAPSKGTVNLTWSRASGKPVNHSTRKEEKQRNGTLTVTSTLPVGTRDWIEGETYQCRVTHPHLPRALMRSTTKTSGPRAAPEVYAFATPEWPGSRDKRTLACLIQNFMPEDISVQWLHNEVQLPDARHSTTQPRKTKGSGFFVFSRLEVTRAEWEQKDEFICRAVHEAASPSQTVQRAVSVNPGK
Assay: ELISA, clone lysate on IgE-coated plate
quantity: R1 Screening OD450

- 5C3 (VHH, also called hzB10v40 VHH, CDR1 site 5 S to D) VHH: EVQLLESGGGEVQPGGSLRLSCVASGLTFDSYNMGWLRQAPGKEREFVGLSGSSSTSTYYAESVKGRFTISRDNAKNTVYLQMTSLRAEDTAVYYCAARRLLSTYWSDRSWDFWGQGTLVTVEP: 0.897
- 9F1 (VHH, also called hzB10v40 VHH, CDR1 site 9 M to S) VHH: EVQLLESGGGEVQPGGSLRLSCVASGLTFSSYNSGWLRQAPGKEREFVGLSGSSSTSTYYAESVKGRFTISRDNAKNTVYLQMTSLRAEDTAVYYCAARRLLSTYWSDRSWDFWGQGTLVTVEP: 0.921
- 10G10 (VHH, also called hzB10v40 VHH, CDR1 site 10 G to A) VHH: EVQLLESGGGEVQPGGSLRLSCVASGLTFSSYNMAWLRQAPGKEREFVGLSGSSSTSTYYAESVKGRFTISRDNAKNTVYLQMTSLRAEDTAVYYCAARRLLSTYWSDRSWDFWGQGTLVTVEP: 0.966
- 28H1 (VHH) VHH: EVQLLESGGGEVQPGGSLRLSCVASGLTFSSYNMGWLRQAPGKEREFVGLSGSSSTSTYYAESVKGRFTISRDNAKNTVYLQMTSLRAEDTAVYYCSARRLLSTYWSDRSWDFWGQGTLVTVEP: 0.927
- 4-1F10 (VHH, also called hzB10v40 VHH, CDR1 site 4 F to Y) VHH: EVQLLESGGGEVQPGGSLRLSCVASGLTYSSYNMGWLRQAPGKEREFVGLSGSSSTSTYYAESVKGRFTISRDNAKNTVYLQMTSLRAEDTAVYYCAARRLLSTYWSDRSWDFWGQGTLVTVEP: 0.709
- 4-2E2 (VHH, also called hzB10v40 VHH, CDR1 site 4 F to G) VHH: EVQLLESGGGEVQPGGSLRLSCVASGLTGSSYNMGWLRQAPGKEREFVGLSGSSSTSTYYAESVKGRFTISRDNAKNTVYLQMTSLRAEDTAVYYCAARRLLSTYWSDRSWDFWGQGTLVTVEP: 1.05
- 2-2C3 (VHH, also called hzB10v40 VHH, CDR1 site 2 L to V) VHH: EVQLLESGGGEVQPGGSLRLSCVASGVTFSSYNMGWLRQAPGKEREFVGLSGSSSTSTYYAESVKGRFTISRDNAKNTVYLQMTSLRAEDTAVYYCAARRLLSTYWSDRSWDFWGQGTLVTVEP: 0.914
- 10E3 (VHH, also called hzB10v40 VHH, CDR1 site 10 G to S) VHH: EVQLLESGGGEVQPGGSLRLSCVASGLTFSSYNMSWLRQAPGKEREFVGLSGSSSTSTYYAESVKGRFTISRDNAKNTVYLQMTSLRAEDTAVYYCAARRLLSTYWSDRSWDFWGQGTLVTVEP: 0.846
